test: ATG_PBREM_CIS: Attagene CIS-FACTORIAL HepG2 Assay for human Phenobarbital-responsive Enhancer Module (PBREM) (AID 2282955); settings: HepG2 PBREM cis-reporter, Attagene multiplexed transcription; actives raise or lower the signal
Calls of active or inactive are those of the source. The calls were made as follows: active = hit-call score of the fitted dose curve at least 0.9, where 1 is the maximum; inactive = score below 0.9.
Outcome codes: active, inactive

{"columns": ["smiles", "label_class"],
 "data": [
  ["O=CCCCC=O", "inactive"],
  ["CN(C)c1ccc(C(=C2C=CC(=[N+](C)C)C=C2)c2ccc(N(C)C)cc2)cc1", "active"],
  ["CC(C)(C)c1csc(-c2cc3cc(OCc4ccccc4CC(=O)O)ccc3o2)n1", "inactive"],
  ["CCCCCCCCOc1ccc(C(=O)c2ccccc2)c(O)c1", "inactive"],
  ["CCN(CC)C(=O)c1cc(S(=O)(=O)Cc2ccccc2)c(N2CCC(c3ccccc3)CC2)cc1N(CC)CCN(C)C", "inactive"],
  ["C[C@]12CC[C@@H]3c4ccc(O)cc4CC[C@H]3[C@@H]1CC[C@H]2O", "inactive"],
  ["O=C=NCCCCCCN=C=O", "inactive"],
  ["O=C(O)Cn1c(=O)n(Cc2ccc(Br)cc2F)c(=O)c2ccc(Cl)cc21", "inactive"],
  ["Cc1cccc2ccccc12", "inactive"],
  ["Cc1cc(F)ccc1-c1cc(N2CC[C@@H](O)[C@H]2CO)ncc1N(C)C(=O)C(C)(C)c1cc(C(F)(F)F)cc(C(F)(F)F)c1", "inactive"],
  ["CN(C)C(=O)C1(N2CCCCC2)CCN(CC[C@@]2(c3ccc(Cl)c(Cl)c3)CN(C(=O)c3ccccc3)CCO2)CC1", "inactive"],
  ["O=C1CCC(C2CCCCC2)CC1", "inactive"]
]}

* * *

Test: CCTE_Shafer_MEA_acute_cross_correlation_HWHM: CCTE's Neural Acute Assay for Cross Correlation at Half Width at Half Maximum, Shafer Lab (AID 2284026);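 also: percent change per well from pre-dose baseline in spike cross-correlogram half width; hits are a decrease in cross-correlogram half width relative to DMSO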
Experimental: CCTE_Shafer_MEA_acute assay is conducted using Axion Biosystems 48 well microelectrode array (MEA) plates and Maestro recording system. Each well of the MEA plate contains a grid of 16 microelectrodes embedded in the culture surface. Electrically active cells, such as neurons, can be cultured over the electrodes, and electrical activity in these cells can be recorded extracellularly. […]
The source made the active and inactive calls. The calls were made as follows: active = hit-call score of the fitted dose curve at least 0.9, where 1 is the maximum; inactive = score below 0.9.
This section presents compounds with their documented AC50 values.
quantity_measured: AC50

{"columns": ["smiles", "measured_value"],
 "data": [
  ["CN(C)c1ccc(C(=C2C=CC(=[N+](C)C)C=C2)c2ccc(N(C)C)cc2)cc1", "2.13 µM (active)"],
  ["CCCCCCCCOC(=O)c1cc(O)c(O)c(O)c1", "8.04 µM (active)"],
  ["CCCCCCCCCCCCO", "28.8 µM (active)"]
]}

* * *

assay: CCTE_Shafer_MEA_acute_firing_rate_mean: CCTE's Neural Acute Assay for Mean Firing Rate, Shafer Lab (AID 2284009);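 also: analyzed for loss of signal so actives lower firing rate relative to DMSO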
Calls of active or inactive are those of the source. The calls were made as follows: active = hit-call score of the fitted dose curve at least 0.9, where 1 is the maximum; inactive = score below 0.9.
Outcome codes: active, inactive

{"columns": ["smiles", "label_class"],
 "data": [
  ["CN(C[C@@H](CC[N+]12CCC(C3CCCCC3)(CC1)CC2)c1ccc(Cl)c(Cl)c1)C(=O)c1cc(C(F)(F)F)cc(C(F)(F)F)c1", "active"],
  ["O=C(O)c1ccccc1-n1cc(C(=O)O)c(=O)c2cc(Nc3c(F)cc(F)cc3Cl)c(Cl)cc21", "inactive"],
  ["Cc1cn([C@H]2C[C@H](N=[N+]=[N-])[C@@H](CO)O2)c(=O)[nH]c1=O", "inactive"],
  ["COc1cc(C(=O)NC2CCN(C)CC2)ccc1Nc1ncc2c(n1)N(C1CCCC1)CC(F)(F)C(=O)N2C", "active"]
]}

Data credit: PubChem BioAssay (EPA / NIEHS)
